Target: JAK2 (Homo sapiens (Human), UniProt O60674)
Sequence (O60674 849-1124): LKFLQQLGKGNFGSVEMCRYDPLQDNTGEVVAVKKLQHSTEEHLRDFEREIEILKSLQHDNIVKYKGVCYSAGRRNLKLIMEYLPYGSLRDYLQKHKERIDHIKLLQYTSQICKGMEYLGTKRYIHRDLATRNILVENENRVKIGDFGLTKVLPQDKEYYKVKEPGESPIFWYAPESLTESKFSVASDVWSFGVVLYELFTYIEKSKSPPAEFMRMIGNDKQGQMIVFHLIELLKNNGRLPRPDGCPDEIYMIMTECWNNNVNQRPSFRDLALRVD
Assay: Jak biochemical HTRF assay, JAK2
Conditions: JAK2 IC50 (nM), recombinant GST-tagged catalytic domain, [ATP] […]
ASSAY_READOUT: IC50 (nM)

| MOLECULE | IC50 [nM] |
| --- | --- |
| N#CC[C@@H](C1CCN(C(=O)OC2CCCC2)CC1)n1cc(C(N)=O)c(Nc2ccc(F)cc2)n1 [Example 11-6] | 1200 |
| C[C@H](C#N)[C@H](C)n1cc(C(N)=O)c(Nc2ccccc2)n1 (mixture of isomers) [Example 1-22] | 198 |
| CCC(CC#N)n1cc(C(N)=O)c(Nc2ccc(C(=O)N3CCS(=O)(=O)CC3)cc2)n1 (stereo not drawn) [Example 1-17] | 74 |
| CC(CC#N)n1cc(C(N)=O)c(Nc2ccccc2)n1 (stereo not drawn) [Example 1-6] | 417 |

A = CC(C)(C)COC(=O)N1CCC([C@H](CC#N)n2cc(C(N)=O)c(Nc3ccc(F)cc3)n2)CC1 (single isomer, unassigned) [Example 12-2]
B = N#CCC(C1CCCC1)n1cc(C(N)=O)c(Nc2ccccc2)n1 (single isomer, unassigned) [Example 16-4]
Prompt: Return label of the item with the larger IC50. Candidates: A , B . Reply briefly: the label of your chosen item.
Response: A

All values here come from patent US9493441B2.
